Data origin: ChEMBL document CHEMBL4385597

# PROTOCOL_DETAILS: Tmax in Sprague-Dawley rat at 5 mg/kg, po measured upto 24 hrs by LC-MS/MS analysis
# Assay type: ADME, organism-based
# CONDITION_DETAILS: in vivo
MEASUREMENT_KIND: Tmax

QUERY_SMILES: C[C@@H](Nc1nc2c(cnn2C2CCCC2)c(=O)[nH]1)C(=O)N1CC[C@H](F)C1
EXPERIMENTAL_RESULT: 19.8 min

---

# PROTOCOL_DETAILS: AUC (0 to t) in Sprague-Dawley rat at 0.4 mg/kg, iv measured up to 24 hrs by LC-MS/MS analysis
# Assay type: ADME, organism-based
# Set-up: dose 0.4 mg/kg, time < 24 hr, route intravenous
# CONDITION_DETAILS: in vivo

QUERY_SMILES: C[C@@H](Nc1nc2c(cnn2C2CCCC2)c(=O)[nH]1)C(=O)N1CC[C@H](F)C1
AUC(0-t) at 24 h [ng·h/mL]: 596

---

# PROTOCOL_DETAILS: Cmax in Sprague-Dawley rat at 0.4 mg/kg, iv measured up to 24 hrs by LC-MS/MS analysis
# Assay type: ADME, organism-based
# Design: dose 0.4 mg/kg, route intravenous
# CONDITION_DETAILS: in vivo

QUERY_SMILES: C[C@@H](Nc1nc2c(cnn2C2CCCC2)c(=O)[nH]1)C(=O)N1CC[C@H](F)C1
Cmax [ng/mL]: 1260

---

# PROTOCOL_DETAILS: Protein binding in human plasma
# Type: ADME, cell-free
# CONDITION_DETAILS: read-out: PPB (converted)

QUERY_SMILES: C[C@@H](Nc1nc2c(cnn2C2CCCC2)c(=O)[nH]1)C(=O)N1CC[C@H](F)C1
fraction unbound: 0.24

---

# PROTOCOL_DETAILS: Solubility of the compound in water at pH 7.3
# Type: physicochemical
MEASUREMENT_KIND: solubility

QUERY_SMILES: C[C@@H](Nc1nc2c(cnn2C2CCCC2)c(=O)[nH]1)C(=O)N1CC[C@H](F)C1
EXPERIMENTAL_RESULT: 126 µg/mL

---

# PROTOCOL_DETAILS: MRT (0 to t) in Sprague-Dawley rat at 0.4 mg/kg, iv measured up to 24 hrs by LC-MS/MS analysis
# Type: ADME, organism-based
# CONDITION_DETAILS: in vivo
MEASUREMENT_KIND: MRT last at 24 h

QUERY_SMILES: C[C@@H](Nc1nc2c(cnn2C2CCCC2)c(=O)[nH]1)C(=O)N1CC[C@H](F)C1
MEASUREMENT_KIND: MRT last at 24 h
EXPERIMENTAL_RESULT: 21 min

---

# PROTOCOL_DETAILS: Half life in rat liver microsomes at 1.5 uM
# Assay type: ADME, Microsome
MEASUREMENT_KIND: half-life at 1.5 µM (min)

QUERY_SMILES: CCCc1nn(C)c2c(=O)[nH]c(-c3cc(S(=O)(=O)N4CCN(C)CC4)ccc3OCC)nc12
MEASUREMENT_UNITS: min
EXPERIMENTAL_RESULT: 5.37
--
QUERY_SMILES: C[C@@H](Nc1nc2c(cnn2C2CCCC2)c(=O)[nH]1)C(=O)N1CCSC1
MEASUREMENT_UNITS: min
EXPERIMENTAL_RESULT: 8.97
--
QUERY_SMILES: C[C@@H](Nc1nc2c(cnn2C2CCCC2)c(=O)[nH]1)C(=O)N1CC[C@H](F)C1
MEASUREMENT_UNITS: min
EXPERIMENTAL_RESULT: 22.4
